Field: pKd. Provide a value for each of the variants that follow.
B1: scFv; the commonest letter at each place (parent)
chain 1: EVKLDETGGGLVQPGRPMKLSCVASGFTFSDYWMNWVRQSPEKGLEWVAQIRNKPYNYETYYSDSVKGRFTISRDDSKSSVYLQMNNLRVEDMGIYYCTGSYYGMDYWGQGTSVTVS
chain 2: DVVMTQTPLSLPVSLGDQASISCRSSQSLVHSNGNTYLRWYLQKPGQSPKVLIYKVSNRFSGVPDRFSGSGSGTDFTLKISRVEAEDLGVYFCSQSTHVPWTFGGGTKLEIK

# Variants of: B1
# EXPERIMENT_DESCRIPTION: Kd (Tite-Seq)
# CONDITION_CONTEXT: with fluorescein; format: scFv 4-4-20, heavy + light
pKd: −log10 of the molar value.

Prompt line: Need pKd, item chain 1 F29G D31Y
Response line: ≤ 5.00

Prompt line: Need pKd, item chain 1 T28G
Response line: 7.72

Prompt line: Need pKd, item chain 1 M105T Y107D
Response line: ≤ 5.00

Prompt line: Need pKd, item chain 1 G104C M105P
Response line: ≤ 5.00

Prompt line: Need pKd, item chain 1 Y102V
Response line: 7.97

Prompt line: Need pKd, item chain 1 Y102K G109Y
Response line: ≤ 5.00

Prompt line: Need pKd, item chain 1 Y103S D106K
Response line: ≤ 5.00

Prompt line: Need pKd, item chain 1 M34R V37W
Response line: 7.45

Prompt line: Need pKd, item chain 1 W108P
Response line: 8.57

Prompt line: Need pKd, item chain 1 G100E D106M
Response line: ≤ 5.00

Prompt line: Need pKd, item chain 1 F29G S30T N35R
Response line: ≤ 5.00

Prompt line: Need pKd, item chain 1 G100F Y102D
Response line: ≤ 5.00

Prompt line: Need pKd, item chain 1 V37H
Response line: 5.11

Prompt line: Need pKd, item chain 1 G100Y G109W
Response line: ≤ 5.00

Prompt line: Need pKd, item chain 1 M34F N35E
Response line: ≤ 5.00

Prompt line: Need pKd, item chain 1 F29N V37T
Response line: ≤ 5.00

Prompt line: Need pKd, item chain 1 M105V Y107H
Response line: ≤ 5.00

Prompt line: Need pKd, item chain 1 Y103H W108R
Response line: ≤ 5.00

Prompt line: Need pKd, item chain 1 T28D V37G
Response line: 6.69

Prompt line: Need pKd, item chain 1 D106N W108I
Response line: 8.06

Prompt line: Need pKd, item chain 1 M105I Y107W
Response line: 6.98

Prompt line: Need pKd, item chain 1 S30N W36C
Response line: ≤ 5.00

Prompt line: Need pKd, item chain 1 F29A S30V
Response line: 5.40

Prompt line: Need pKd, item chain 1 G100D Y102S
Response line: ≤ 5.00

Prompt line: Need pKd, item chain 1 S101G Y107K
Response line: ≤ 5.00

Prompt line: Need pKd, item chain 1 Y102H G104N M105S
Response line: ≤ 5.00

Prompt line: Need pKd, item chain 1 T28V N35H
Response line: ≤ 5.00

Prompt line: Need pKd, item chain 1 M105T G109V
Response line: ≤ 5.00

Prompt line: Need pKd, item chain 1 F29Y N35H
Response line: ≤ 5.00

Prompt line: Need pKd, item chain 1 G100Q G109C
Response line: ≤ 5.00

Prompt line: Need pKd, item chain 1 S101K
Response line: ≤ 5.00

Prompt line: Need pKd, item chain 1 G104T D106T Y107L
Response line: ≤ 5.00
